Target: T1, Human TNFR2-His (Sino 10417-H08H) (human, UniProt P20333 23-257)
T1 construct: Bought protein; also called recombinant human TNFR2 protein; not shown: His tag
T1 sequence (looked up): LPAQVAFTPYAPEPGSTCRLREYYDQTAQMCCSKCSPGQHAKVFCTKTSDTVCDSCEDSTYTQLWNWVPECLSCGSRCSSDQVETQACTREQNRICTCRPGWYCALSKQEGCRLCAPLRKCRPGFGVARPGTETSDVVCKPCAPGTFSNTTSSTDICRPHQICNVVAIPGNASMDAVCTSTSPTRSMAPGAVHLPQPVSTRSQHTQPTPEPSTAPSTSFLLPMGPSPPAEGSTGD
Experiment: SPR (Biacore T200), antibody captured on Protein A chip
List of koff values.
Answer format: numeric, s⁻¹ implied, no suffix.

Record summary for 224-Hu1 (antibody, V domains shown, Humanized form of #224; also called VH8 + VL6) VH: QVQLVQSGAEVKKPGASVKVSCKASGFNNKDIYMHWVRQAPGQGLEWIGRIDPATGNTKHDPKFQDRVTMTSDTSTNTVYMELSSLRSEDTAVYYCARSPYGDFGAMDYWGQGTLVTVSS VL: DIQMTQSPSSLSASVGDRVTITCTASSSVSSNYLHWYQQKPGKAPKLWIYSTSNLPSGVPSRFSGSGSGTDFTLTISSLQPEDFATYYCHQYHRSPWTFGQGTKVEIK : reported koff = 0.000766

Record summary for 224-Hu6 (antibody, V domains shown, Humanized form of #224; also called VH8 + VL7) VH: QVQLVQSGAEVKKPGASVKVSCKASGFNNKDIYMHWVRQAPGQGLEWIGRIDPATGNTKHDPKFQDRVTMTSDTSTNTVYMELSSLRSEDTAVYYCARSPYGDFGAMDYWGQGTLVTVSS VL: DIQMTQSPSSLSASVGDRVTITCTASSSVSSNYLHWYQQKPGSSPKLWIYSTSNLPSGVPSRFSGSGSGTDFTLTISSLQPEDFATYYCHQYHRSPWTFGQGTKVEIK : reported koff = 0.000697

Record summary for 224-Hu5 (antibody, V domains shown, Humanized form of #224; also called VH9 + VL9) VH: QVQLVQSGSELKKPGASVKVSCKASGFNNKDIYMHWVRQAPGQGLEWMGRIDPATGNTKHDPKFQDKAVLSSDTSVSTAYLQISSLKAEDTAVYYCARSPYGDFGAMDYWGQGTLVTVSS VL: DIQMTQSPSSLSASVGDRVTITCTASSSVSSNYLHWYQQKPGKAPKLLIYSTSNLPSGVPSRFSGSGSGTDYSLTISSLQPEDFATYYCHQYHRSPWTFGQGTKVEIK : reported koff = 0.000682

Record summary for 001-Hu3 (antibody, V domains shown, Humanized form of #001; also called VH1 + VL3) VH: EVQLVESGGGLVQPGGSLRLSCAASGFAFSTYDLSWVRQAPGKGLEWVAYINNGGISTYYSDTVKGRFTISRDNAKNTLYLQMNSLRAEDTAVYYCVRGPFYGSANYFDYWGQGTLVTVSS VL: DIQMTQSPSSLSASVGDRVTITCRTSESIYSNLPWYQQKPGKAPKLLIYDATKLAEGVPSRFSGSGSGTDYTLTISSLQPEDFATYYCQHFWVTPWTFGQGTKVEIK : reported koff = 9.91e-05

Record summary for 001-Hu5 (antibody, V domains shown, Humanized form of #001; also called VH1 + VL4) VH: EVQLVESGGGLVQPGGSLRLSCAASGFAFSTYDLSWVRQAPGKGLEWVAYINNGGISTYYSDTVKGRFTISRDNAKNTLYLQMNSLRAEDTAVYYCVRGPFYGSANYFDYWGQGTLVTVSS VL: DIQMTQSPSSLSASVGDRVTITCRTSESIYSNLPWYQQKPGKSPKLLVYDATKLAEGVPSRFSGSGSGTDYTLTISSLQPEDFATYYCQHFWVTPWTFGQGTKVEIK : reported koff = 0.000115
